target: T1, COVID-19 nucleocapsid protein (N-protein) (severe acute respiratory syndrome …, UniProt P0DTC9 1-419); assay: bio-layer interferometry (BLI)
T1 construct: also called nucleocapsid protein (N-protein) of severe acute respiratory syndrome coronavirus 2 (SARS-CoV-2)
Measured Kd of individual entries
Include the unit right after the number.

Some binders with recorded Kd:
ACSEEYMFCNNRYVVCA (Ci, Cii and Ciii cysteines covalently bound to TATA scaffold) [BCY16577]: 934 nM
RRAVCTTDFCNNRYVVNRCA (Ci, Cii and Ciii cysteines covalently bound to TBMT scaffold) [BCY18976]: 19.7 nM
NQLPCLTDFCNNRYVVNQCQEQS (Ci, Cii and Ciii cysteines covalently bound to TBMT scaffold) [BCY18994]: 6890 nM
ACDKWQLGCRITYKCA (Ci, Cii and Ciii cysteines covalently bound to TATA scaffold) [BCY16575]: 1020 nM
ACTNLQWADCYINHVCA (Ci, Cii and Ciii cysteines covalently bound to TATA scaffold) [BCY19458]: 2290 nM
ACMQNPCRWVNIPCA (N-terminal acetyl (Ac); Ci, Cii and Ciii cysteines covalently bound to TATA scaffold) [BCY20266]: 9.7 nM

Bench note: what Kd did HSLICVTDFCNNRYVVNRCMHSQ (Ci, Cii and Ciii cysteines covalently bound to TBMT scaffold) [BCY18987] show?
9.7 nM

Entry to check: ACQVDVCALTGIQIPCA (Ci, Cii and Ciii cysteines covalently bound to TATA scaffold) [BCY19455]
14900 nM

Entry to check: ACTTDFCNDRYIINPCA (Ci, Cii and Ciii cysteines covalently bound to TBMT scaffold) [BCY17631]
321 nM

Entry to check: LARDCGTDFCNNRYVVNRCA (Ci, Cii and Ciii cysteines covalently bound to TBMT scaffold) [BCY18989]
26.5 nM

Entry to check: ACNGDFCNNRYIVNTCA (Ci, Cii and Ciii cysteines covalently bound to TBMT scaffold) [BCY17625]
27.6 nM

Entry to check: ACTTDFCNNRYVVNRCEALE (Ci, Cii and Ciii cysteines covalently bound to TBMT scaffold) [BCY18970]
29.3 nM

Entry to check: ACTTDFCNNRYVVNRCA (N-terminal acetyl (Ac); Ci, Cii and Ciii cysteines covalently bound to TBMT scaffold) [BCY20263]
11.8 nM

Entry to check: ACRVTLDACWDTPCA (Ci, Cii and Ciii cysteines covalently bound to TATA scaffold) [BCY16579]
759 nM

Entry to check: ACTTDFCNDRYIVNSCA (Ci, Cii and Ciii cysteines covalently bound to TBMT scaffold) [BCY17630]
331 nM

Entry to check: ACKRGYCPVTDTFCA (Ci, Cii and Ciii cysteines covalently bound to TBMT scaffold) [BCY17640]
43000 nM
